Data provenance is the Immune Epitope Database (IEDB).

Target: HLA-A*01:01
Assay: IEDB peptide-MHC binding, purified MHC/direct/fluorescence; filed as Kd, often an IC50 or EC50 that approximates it; bounds were set here for any values at or beyond the usual limits of such assays
Conditions: source organism: Corynebacterium glutamicum
pKd: −log10 of the molar value.
Quantity: pKd

| Sequence entry | Quantity | Result |
| --- | --- | --- |
| ATFSRPGSL | pKd | ≤ 4.70 |

====

Target: HLA-A*26:01
Assay: IEDB peptide-MHC binding, purified MHC/direct/fluorescence; filed as Kd, often an IC50 or EC50 that approximates it; bounds were set here for any values at or beyond the usual limits of such assays
Conditions: source organism: Variola virus
pKd: −log10 of the molar value.
Below, each entry is listed alongside its reported pKd.

| Sequence entry | System under test | Op | pKd |
| --- | --- | --- | --- |
| WQFAIHYSF | HLA-A*26:01 | ≤ | 4.70 |
| MTRVTNNVY | HLA-A*26:01 | = | 6.63 |
